# System: HCV genotype 1b (Con1) replicon in HUH-7 cells
# test-name: HCV replicon luciferase reporter assay, genotype 1b
# Type: cell-based
# condition-label: Hepatitis C virus, Huh-7, 72 h, HCV genotype 1b replicon luciferase, 3 days incubation, read-out: LE_1b (EC50, range)
experimental-readout: EC50

q: // EC50 lookup, key: COc1cc2ccccc2c(O[C@@H]2C[C@H]3C(=O)N[C@]4(C(=O)NS(=O)(=O)C5(C)CC5)C[C@H]4/C=C\CC[C@@H](C)C[C@@H](C)[C@H](NC(=O)OC(C)(C)C)C(=O)N3C2)n1
a: < 5.46 nM

q: // EC50 lookup, key: COc1cc2ccnc(O[C@@H]3C[C@H]4C(=O)N[C@]5(C(=O)NS(=O)(=O)C6CC6)C[C@H]5/C=C\CC[C@@H](C)C[C@@H](C)[C@H](NC(=O)OC(C)(C)C(F)(F)F)C(=O)N4C3)c2cc1OC
a: 1.01 to 5 nM

q: // EC50 lookup, key: C[C@H]1CC/C=C\[C@@H]2C[C@@]2(C(=O)NS(=O)(=O)C2(C)CC2)NC(=O)[C@@H]2C[C@@H](Oc3nccc4c5c(ccc34)N(C)CCO5)CN2C(=O)[C@@H](NC(=O)C(=O)N(C)C)[C@H](C)C1
a: 4.82 to 103 nM

q: // EC50 lookup, key: [2H]C([2H])([2H])C(OC(=O)N[C@@H]1C(=O)N2C[C@H](Oc3nccc4cc(OC(C)C)ccc34)C[C@H]2C(=O)N[C@]2(C(=O)NS(=O)(=O)C3(C)CC3)C[C@H]2/C=C\CC[C@H](C)C[C@H]1C)(C([2H])([2H])[2H])C([2H])([2H])[2H]
a: 4.82 to 103 nM

====

# System: HCV genotype 1b (Con1) replicon in HUH-7 cells
# test-name: HCV replicon luciferase reporter assay, genotype 1b
# Type: cell-based
# condition-label: Hepatitis C virus, Huh-7, 72 h, HCV genotype 1b replicon luciferase, 3 days incubation, read-out: LE_1b (EC50, range)
experimental-readout: EC50

q: // EC50 lookup, key: CC[C@@H]1C[C@@H](C)CC/C=C\[C@@H]2C[C@@]2(C(=O)NS(=O)(=O)C2(C)CC2)NC(=O)[C@@H]2C[C@@H](Oc3nccc4c5c(ccc34)OCCO5)CN2C(=O)[C@H]1NC(=O)OC(C)(C)C(F)(F)F
a: 4.82 to 103 nM

q: // EC50 lookup, key: C[C@@H]1CC/C=C\[C@@H]2C[C@@]2(C(=O)NS(=O)(=O)C2(CF)CC2)NC(=O)[C@@H]2C[C@@H](Oc3nc4c(c5ccccc35)CCCO4)CN2C(=O)[C@@H](NC(=O)OC(C)(C)C(F)F)[C@H](C)C1
a: 1.01 to 5 nM

q: // EC50 lookup, key: COc1cc2c(OC)cnc(O[C@@H]3C[C@H]4C(=O)N[C@]5(C(=O)NS(=O)(=O)C6(CF)CC6)C[C@H]5/C=C\CC[C@@H](C)C[C@@H](C)[C@H](NC(=O)OC(C)(C)C)C(=O)N4C3)c2cc1F
a: < 5.46 nM

q: // EC50 lookup, key: C[C@@H]1CC/C=C\[C@@H]2C[C@@]2(C(=O)NS(=O)(=O)C2(C)CC2)NC(=O)[C@@H]2C[C@@H](Oc3nccc4c5c(ccc34)OCCO5)CN2C(=O)[C@@H](NC(=O)OC(C)(C)C(F)(F)F)[C@H](C)C1
a: < 5.46 nM

q: // EC50 lookup, key: COc1ccc2c(O[C@@H]3C[C@H]4C(=O)N[C@]5(C(=O)NS(=O)(=O)C6(C)CC6)C[C@H]5/C=C\CC[C@@H](C)C[C@@H](C)[C@H](NC(=O)OC(C)(C)C(F)(F)F)C(=O)N4C3)nc(-c3ccc4c(c3)OCCO4)cc2c1
a: < 5.46 nM

q: // EC50 lookup, key: COc1ccc2c(O[C@@H]3C[C@H]4C(=O)N[C@]5(C(=O)NS(=O)(=O)C6CC6)C[C@H]5/C=C\CC[C@H](C)C[C@@H](C)[C@H](NC(=O)OC5C[C@@H]6C[C@@H]6C5)C(=O)N4C3)nc(-c3ccc(OC(C)C)nc3)cc2c1 (some centres unmarked)
a: < 5.46 nM

q: // EC50 lookup, key: CCOc1ccc2c(O[C@@H]3C[C@H]4C(=O)N[C@]5(C(=O)NS(=O)(=O)C6CC6)C[C@H]5/C=C\CC[C@@H](C)C[C@@H](CC)[C@H](NC(=O)OC(C)(C)C(C)(F)F)C(=O)N4C3)nccc2c1
a: 1.01 to 5 nM

q: // EC50 lookup, key: COc1ccc2c(O[C@@H]3C[C@H]4C(=O)N[C@]5(C(=O)NS(=O)(=O)C6CC6)C[C@H]5/C=C\CC[C@@H](C)C[C@@H](C)[C@H](NC(=O)NC(C)(C)C)C(=O)N4C3)nc(-c3ccc(OC(C)C)cn3)cc2c1
a: < 5.46 nM

====

# System: HCV genotype 1b (Con1) replicon in HUH-7 cells
# test-name: HCV replicon luciferase reporter assay, genotype 1b
# Format: cell-based
# condition-label: Hepatitis C virus, Huh-7, 72 h, HCV genotype 1b replicon luciferase, 3 days incubation, read-out: LE_1b (EC50, range)
Would you mind telling me the reported EC50 of each entry?

q: Give recorded EC50 with HCV genotype 1b (Con1) replicon in HUH-7 cells for the following compound: CC[C@@H]1C[C@H](C)CC/C=C\[C@@H]2C[C@@]2(C(=O)NS(=O)(=O)C2CC2)NC(=O)[C@@H]2C[C@@H](Oc3ncc(OC)c4ccc(F)cc34)CN2C(=O)[C@H]1NC(=O)OC(C)(C)C(C)(F)F
a: 0.1 to 0.5 nM

q: Give recorded EC50 with HCV genotype 1b (Con1) replicon in HUH-7 cells for the following compound: C[C@@H]1CC/C=C\[C@@H]2C[C@@]2(C(=O)NS(=O)(=O)C2(C)CC2)NC(=O)[C@@H]2C[C@@H](Oc3nccc4c5c(ccc34)OCCO5)CN2C(=O)[C@@H](NC(=O)OC(C)(C)C)[C@H](C)C1
a: < 5.46 nM

q: Give recorded EC50 with HCV genotype 1b (Con1) replicon in HUH-7 cells for the following compound: COc1ccc2c(O[C@@H]3C[C@H]4C(=O)N[C@]5(C(=O)NS(=O)(=O)C6(C)CC6)C[C@H]5/C=C\CC[C@@H](C)C[C@@H](C)[C@H](NC(=O)OC(C)(C)C(C)(F)F)C(=O)N4C3)nc(-c3ccc(OC(C)C)cn3)cc2c1
a: 1.01 to 5 nM

q: Give recorded EC50 with HCV genotype 1b (Con1) replicon in HUH-7 cells for the following compound: COc1cc2ccnc(O[C@@H]3C[C@H]4C(=O)N[C@]5(C(=O)NS(=O)(=O)C6(F)CC6)C[C@H]5/C=C\CC[C@@H](C)C[C@@H](C)[C@H](NC(=O)OC(C)(C)C)C(=O)N4C3)c2cc1F
a: < 5.46 nM

q: Give recorded EC50 with HCV genotype 1b (Con1) replicon in HUH-7 cells for the following compound: COc1ccc2c(O[C@@H]3C[C@H]4C(=O)N[C@]5(C(=O)NS(=O)(=O)C6(F)CC6)C[C@H]5/C=C\CC[C@@H](C)C[C@@H](C)[C@H](NC(=O)C(C)(C)C)C(=O)N4C3)nccc2c1
a: < 5.46 nM

q: Give recorded EC50 with HCV genotype 1b (Con1) replicon in HUH-7 cells for the following compound: COc1ccc2c(O[C@@H]3C[C@H]4C(=O)N[C@]5(C(=O)NS(=O)(=O)C6(C)CC6)C[C@H]5/C=C\CC[C@@H](C)C[C@@H](C)[C@H](NC(=O)OC(C)(C)C)C(=O)N4C3)cc(-c3ccc(OC(C)C)cc3)nc2c1
a: 0.51 to 1 nM

q: Give recorded EC50 with HCV genotype 1b (Con1) replicon in HUH-7 cells for the following compound: CC[C@@H]1C[C@@H](C)CC/C=C\[C@@H]2C[C@@]2(C(=O)NS(=O)(=O)C2(C)CC2)NC(=O)[C@@H]2C[C@@H](Oc3nc4c(c5ccccc35)OCCC4)CN2C(=O)[C@H]1NC(=O)OC(C)(C)C
a: 4.82 to 103 nM

q: Give recorded EC50 with HCV genotype 1b (Con1) replicon in HUH-7 cells for the following compound: CCOc1ccc2c(O[C@@H]3C[C@H]4C(=O)N[C@]5(C(=O)NS(=O)(=O)C6(C)CC6)C[C@H]5/C=C\CC[C@H](C)C[C@@H](C)[C@H](NC(=O)OC(C)(C)C)C(=O)N4C3)nccc2c1
a: < 5.46 nM

q: Give recorded EC50 with HCV genotype 1b (Con1) replicon in HUH-7 cells for the following compound: CCn1nc(O[C@@H]2C[C@H]3C(=O)N[C@]4(C(=O)NS(=O)(=O)C5(C)CC5)C[C@H]4/C=C\CC[C@H](C)C[C@@H](C)[C@H](NC(=O)NC(C)(C)C)C(=O)N3C2)c2ccccc2c1=O
a: > 87.4 nM
